TEST SYSTEM: T1, human FOLR1 protein, His Tag (ACRO FO1-H52H1) (human, UniProt P15328 25-233)
T1 construct: Bought protein coated on ELISA plates; not shown: His tag
T1 sequence (P15328 25-233 limits assumed): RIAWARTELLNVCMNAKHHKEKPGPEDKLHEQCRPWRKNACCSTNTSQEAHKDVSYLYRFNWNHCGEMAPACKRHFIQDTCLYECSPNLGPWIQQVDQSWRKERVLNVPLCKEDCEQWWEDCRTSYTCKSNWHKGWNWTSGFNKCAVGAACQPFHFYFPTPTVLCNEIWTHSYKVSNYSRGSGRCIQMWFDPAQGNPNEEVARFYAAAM
EXPERIMENT SUMMARY: ELISA, coated hFOLR1-His, supernatant 5x
Hi there, I'd appreciate the recorded OD450 for every entry that follows.

Query string: Give the reported OD450 for this binder. F1 (antibody, V domains shown, also called clone F1; anti-FOLR1 antibody F1) VH: EVQLLESGGGVVQPGRSLRLSCAASGFTFSSYGMHWVRQAPGKGLEWVAVISYDGSNKYYADSVKGRFTISRDNSKNTLYLQMNSLRAEDTAVYYCARPRAYYGAYGSSFDYWGQGTQVTVSS VL: EIVMTQSPSSVSASVGDRVAITCRASQGISSWLAWYQQKPGKAPKLLIYAASSLQSGVPSRFSGSGSGTDFTLTISSLQPEDFATYYCQQSYSTPLTFGGGTKVDIK
Result string: 1.45 OD450

Query string: Give the reported OD450 for this binder. F131 (antibody, V domains shown, also called clone F131; F131 mAb) VH: EVQLLESGGGVVQPGRSLRLSCAASGFTFSSYGMHWVRQAPGKGLEWVAVISYDGSNKYYADSVKGRFTISRANSKNTLYLQMNSLRAEDTAVYYCARPRAYYGAYGSSFDYWGQGTQVTVSS VL: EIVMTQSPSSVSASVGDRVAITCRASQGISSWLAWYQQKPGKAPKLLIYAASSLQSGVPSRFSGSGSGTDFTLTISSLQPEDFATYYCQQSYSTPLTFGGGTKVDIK
Result string: 1.52 OD450

Query string: Give the reported OD450 for this binder. F112 (antibody, V domains shown, Tested as full-length IgG with an IgG1 Fc from HEK293, as supernatant or purified; also called clone F112; anti-FOLR1 antibody F112) VH: EVQLLESGGGVVQPGRSLRLSCAASGFTFSSYGMHWVRQAPGKGLEWVAVISYDGSNKYYADSVKGRFTISRHNSKNTLYLQMNSLRAEDTAVYYCARPRAYYGAYGSSFDYWGQGTQVTVSS VL: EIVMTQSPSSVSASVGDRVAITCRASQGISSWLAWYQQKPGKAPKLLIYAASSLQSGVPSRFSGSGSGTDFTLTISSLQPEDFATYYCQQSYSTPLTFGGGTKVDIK
Result string: 1.42 OD450

Query string: Give the reported OD450 for this binder. F138 (antibody, V domains shown, Tested as full-length IgG with an IgG1 Fc, HEK293 supernatant; also called clone F138; anti-FOLR1 antibody F138) VH: EVQLLESGGGVVQPGRSLRLSCAASGFTFSSYGMHWVRQAPGKGLEWVAVISYDGSNKYYADSVKGRFTISTHNSKNTLYLQMNSLRAEDTAVYYCARPRAYYGAYGSSFDYWGQGTQVTVSS VL: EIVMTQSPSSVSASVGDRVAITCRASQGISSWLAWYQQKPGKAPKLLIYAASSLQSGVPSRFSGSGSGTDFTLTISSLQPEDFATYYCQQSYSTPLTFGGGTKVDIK
Result string: 1.69 OD450

Query string: Give the reported OD450 for this binder. F40 (antibody, V domains shown, Tested as full-length IgG with an IgG1 Fc from HEK293, as supernatant or purified; also called clone F40; anti-FOLR1 antibody F40) VH: EVQLLESGGGVVQPGRSLRLSCAASGFTFSSYAMHWVRQAPGKGLEWVAVISYDGSNKYYADSVKGRFIISRDNSKNTVYLQMNSLRAEDTAVYYCARPTYVFTYTGSSFDYWGQGTQVTVSS VL: DIQVTQSPSSLSASLGDTVSITCRASRGLTDSVAWYQQKPGQAPKLLIYAASTLQSGVPSRFGGSGSGSYFTLTITSLQPEDVATYYCQNYKSAPWTFGQGTKVEIK
Result string: 0.382 OD450

Query string: Give the reported OD450 for this binder. F48 (antibody, V domains shown, Tested as full-length IgG with an IgG1 Fc from HEK293, as supernatant or purified; also called clone F48; anti-FOLR1 antibody F48) VH: EVQLLESGGGVVQPGRSLRLSCAASGFTFSSYGMHWVRQAPGKGLEWVAVISYDGSNKYYADSVKGRFTISRDNSKNTLYLHMNSLRAEDTAVYYCARPRAYYGAYGSSFDYWGQGTQVTVSS VL: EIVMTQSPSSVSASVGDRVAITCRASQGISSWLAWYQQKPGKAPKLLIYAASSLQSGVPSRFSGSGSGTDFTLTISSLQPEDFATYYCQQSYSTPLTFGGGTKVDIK
Result string: 1.59 OD450

Query string: Give the reported OD450 for this binder. F100 (antibody, V domains shown, Tested as full-length IgG with an IgG1 Fc from HEK293, as supernatant or purified; also called clone F100; anti-FOLR1 antibody F100) VH: EVQLLESGGGVVQPGRSLRLSCAASGFTFSSYGMHWVRQAPGKGLEWVAVISYDGSNKYYADSVKGRFTISRPNSKNTLYLQMNSLRAEDTAVYYCARPRAYYGAYGSSFDYWGQGTQVTVSS VL: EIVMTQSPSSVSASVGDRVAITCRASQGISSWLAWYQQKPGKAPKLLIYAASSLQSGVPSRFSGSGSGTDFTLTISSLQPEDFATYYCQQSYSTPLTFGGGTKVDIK
Result string: 1.53 OD450
